Target of assay: PHKG1 (human) (UniProt Q16816)
Sequence (Q16816 whole entry, looked up): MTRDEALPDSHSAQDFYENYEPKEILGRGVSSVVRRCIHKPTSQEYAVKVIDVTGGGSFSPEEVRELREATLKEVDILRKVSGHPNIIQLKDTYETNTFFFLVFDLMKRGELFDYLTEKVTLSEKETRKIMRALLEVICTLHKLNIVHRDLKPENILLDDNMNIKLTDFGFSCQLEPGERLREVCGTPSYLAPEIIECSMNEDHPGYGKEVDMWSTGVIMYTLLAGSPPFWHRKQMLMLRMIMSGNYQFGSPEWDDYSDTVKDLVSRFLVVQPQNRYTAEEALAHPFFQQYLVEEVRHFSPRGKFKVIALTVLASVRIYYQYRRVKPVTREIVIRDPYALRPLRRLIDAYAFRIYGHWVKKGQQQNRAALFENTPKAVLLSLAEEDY
Experiment: radiometric filter-binding kinase assay, Kinase HotSpot
Assay context: compound 0.5 µM; ATP 10 µM
Endpoint label: residual activity
Quick note: unit goes after the number.

Kindly give each listed record's residual activity.
1. CCC(=O)Nc1ccc2ncnc(Nc3cccc(Br)c3)c2c1
2. N#CC(C#N)=C(N)/C(C#N)=C/c1ccc(O)cc1
3. O=C1Nc2ccc(Cl)cc2/C1=C/c1cc(Cl)c(O)c(Cl)c1
4. CO[C@H]1CC2CC[C@@H](C)[C@@](O)(O2)C(=O)C(=O)N2CCCC[C@H]2C(=O)OC([C@H](C)C[C@@H]2CC[C@@H](O)[C@H](OC)C2)CC(=O)[C@H](C)/C=C(\C)[C@@H](O)[C@@H](OC)C(=O)[C@H](C)C[C@H](C)/C=C/C=C/C=C/1C (some centres undefined)

Output:
["92.4%", "92.5%", "86.4%", "93%"]

Kindly give each listed record's residual activity.
1. Nc1ncnc2c1c(-c1ccc(Oc3ccccc3)cc1)cn2C1CCCC1
2. CC(C)N(CCC(=O)c1ccc2ccccc2c1)Cc1ccccc1

Output:
91.1%
91.6%

Kindly give each listed record's residual activity.
1. Nc1cccc(-c2cc3c(Oc4cccc(O)c4)ncnc3[nH]2)c1
2. Nc1ncnc2[nH]nc(Nc3ccc(F)cc3)c12
3. Cc1ccc(NC2=CC(=O)c3sc(C)nc3C2=O)cc1

Output:
81.5%
87.5%
88.7%

----------
Target of assay: TAOK3 (human) (UniProt Q9H2K8)
Sequence (Q9H2K8 whole entry, looked up): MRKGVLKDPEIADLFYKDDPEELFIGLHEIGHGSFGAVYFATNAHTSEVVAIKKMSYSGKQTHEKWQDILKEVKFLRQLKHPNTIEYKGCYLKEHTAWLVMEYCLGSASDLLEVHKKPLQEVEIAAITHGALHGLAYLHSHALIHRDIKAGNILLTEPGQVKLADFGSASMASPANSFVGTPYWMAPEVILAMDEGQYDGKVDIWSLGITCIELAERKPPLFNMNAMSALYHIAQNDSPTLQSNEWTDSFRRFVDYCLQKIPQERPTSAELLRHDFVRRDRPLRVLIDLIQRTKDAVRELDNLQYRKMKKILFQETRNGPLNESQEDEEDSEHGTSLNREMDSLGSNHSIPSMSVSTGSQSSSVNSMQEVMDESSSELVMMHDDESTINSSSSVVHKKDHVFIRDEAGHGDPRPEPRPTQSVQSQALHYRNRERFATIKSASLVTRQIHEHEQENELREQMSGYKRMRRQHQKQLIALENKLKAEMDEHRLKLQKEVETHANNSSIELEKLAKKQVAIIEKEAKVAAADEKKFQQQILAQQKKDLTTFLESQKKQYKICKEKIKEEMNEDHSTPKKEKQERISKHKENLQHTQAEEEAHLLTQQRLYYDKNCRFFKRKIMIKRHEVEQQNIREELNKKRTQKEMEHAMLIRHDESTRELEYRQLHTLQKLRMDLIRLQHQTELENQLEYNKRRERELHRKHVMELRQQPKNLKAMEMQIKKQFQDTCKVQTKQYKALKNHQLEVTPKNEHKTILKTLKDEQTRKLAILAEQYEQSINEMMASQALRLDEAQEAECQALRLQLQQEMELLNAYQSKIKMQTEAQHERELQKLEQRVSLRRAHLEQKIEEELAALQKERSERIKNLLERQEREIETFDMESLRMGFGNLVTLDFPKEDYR
Experiment: radiometric filter-binding kinase assay, Kinase HotSpot
Assay context: compound 0.5 µM; ATP 10 µM
Answer each item with its documented residual activity.
Answers are plain numbers, in %.

Example cases with answers are listed next.
- CCN(CC)C(=O)c1ccc(Nc2nc(OCC3CCCCC3)c3nc[nH]c3n2)cc1: 74.2
- CNc1cc2c(Nc3cccc(Br)c3)ncnc2cn1: 94
- N#C/C(=C(/N)Sc1ccc(N)cc1)c1ccccc1C(F)(F)F: 98.6
- O=c1cc(N2CCOCC2)oc2c1ccc1ccccc12: 98.7

Field: next compound
Task: Fill in the blank: the reported residual activity of CC(C)N(CCC(=O)c1ccc2ccccc2c1)Cc1ccccc1 is ____.
Output: 87.8

----------
Target of assay: MAP4K2 (human)
Experiment: radiometric filter-binding kinase assay, Kinase HotSpot
Assay context: compound 0.5 µM; ATP 10 µM
Endpoint label: residual activity (%)
Numbers only, in %.

Kindly give each listed record's residual activity.
1. COc1ccc2c(c[n+](C)c3c4cc5c(cc4ccc23)OCO5)c1OC
2. Cc1ccc(S(=O)(=O)/C=C/C#N)cc1
3. O=c1cc(N2CCOCC2)oc2c1ccc1ccccc12

Output:
1. 96.1
2. 130
3. 118

Kindly give each listed record's residual activity.
1. O=C(Nc1cccc(Nc2nccc(Nc3cccc(C(F)(F)F)c3)n2)c1)C1CC1
2. O=S(=O)(c1cccc2cnccc12)N1CCCNCC1
3. N#C/C(=C(/N)Sc1ccc(N)cc1)c1ccccc1C(F)(F)F
4. CCN(CC)CCNC(=O)c1c(C)[nH]c(/C=C2\C(=O)Nc3ccc(F)cc32)c1C
5. Nc1cccc(-c2cc3c(Oc4cccc(O)c4)ncnc3[nH]2)c1
6. CC[n+]1c(/C=C/N(C)c2ccccc2)n(-c2ccccc2)c2ccc(-c3nc4ccccc4s3)cc21
7. O=C1NC(=O)/C(=C/c2ccc3c(c2)OC(F)(F)O3)S1
8. Cc1ccc(NC2=CC(=O)c3sc(C)nc3C2=O)cc1

Output:
1: 112; 2: 45.7; 3: 85.7; 4: 34.4; 5: 55.5; 6: 103; 7: 90.7; 8: 104

Kindly give each listed record's residual activity.
1. CO[C@H]1CC2CC[C@@H](C)[C@@](O)(O2)C(=O)C(=O)N2CCCC[C@H]2C(=O)OC([C@H](C)C[C@@H]2CC[C@@H](O)[C@H](OC)C2)CC(=O)[C@H](C)/C=C(\C)[C@@H](O)[C@@H](OC)C(=O)[C@H](C)C[C@H](C)/C=C/C=C/C=C/1C (stereo not given in full)
2. CC(C)N(CCC(=O)c1ccc2ccccc2c1)Cc1ccccc1
3. CCN(CC)C(=O)c1ccc(Nc2nc(OCC3CCCCC3)c3nc[nH]c3n2)cc1
4. CC#CC(=O)Nc1cc2c(Nc3ccc(F)c(Cl)c3)ncnc2cn1
5. COc1cc2ncnc(Nc3cccc(Cl)c3)c2cc1OC
6. CC(=O)c1ccc(N2CCOCC2)cc1O

Output:
1. 111
2. 98.3
3. 59.7
4. 114
5. 98.1
6. 116

----------
Target of assay: TGFBR1 (human)
Experiment: radiometric filter-binding kinase assay, Kinase HotSpot
Assay context: compound 0.5 µM; ATP 10 µM
Endpoint label: residual activity (%)
One number for each entry, in %.

• COc1cc2ncnc(Nc3cccc(Cl)c3)c2cc1OC = 100
• Nc1cccc(-c2cc3c(Oc4cccc(O)c4)ncnc3[nH]2)c1 = 101
• CCN(CC)C(=O)c1ccc(Nc2nc(OCC3CCCCC3)c3nc[nH]c3n2)cc1 = 100
• O=S(=O)(c1cccc2cnccc12)N1CCCNCC1 = 98.4
• CCC(=O)Nc1ccc2ncnc(Nc3cccc(Br)c3)c2c1 = 101

Kindly give each listed record's residual activity.
1. Nc1ccc2ncnc(NCCc3ccc(Oc4ccccc4)cc3)c2c1
2. CNc1cc2c(Nc3cccc(Br)c3)ncnc2cn1
3. O=C1Nc2ccc(Cl)cc2/C1=C/c1cc(Cl)c(O)c(Cl)c1

Output:
[97.7, 97.7, 102]

----------
Target of assay: IGF1R (human)
Experiment: radiometric filter-binding kinase assay, Kinase HotSpot
Assay context: compound 0.5 µM; ATP 10 µM
Answer each item with its documented residual activity.
Give bare numbers, in %.

- CC(C)N(CCC(=O)c1ccc2ccccc2c1)Cc1ccccc1: 107

Kindly give each listed record's residual activity.
1. Nc1cccc(-c2cc3c(Oc4cccc(O)c4)ncnc3[nH]2)c1
2. CCCC(=O)Oc1ccc2[nH]c(C(=O)c3cc4ccccc4[nH]3)cc2c1

Output:
99.5
88.3

Kindly give each listed record's residual activity.
1. O=C1NC(=O)C(c2cn(CCCn3ccnc3)c3ccccc23)=C1Nc1ccccc1
2. O=C1NC(=O)/C(=C/c2ccc3c(c2)OC(F)(F)O3)S1
3. CC#CC(=O)Nc1cc2c(Nc3ccc(F)c(Cl)c3)ncnc2cn1
4. CC[n+]1c(/C=C/N(C)c2ccccc2)n(-c2ccccc2)c2ccc(-c3nc4ccccc4s3)cc21
5. CO[C@H]1CC2CC[C@@H](C)[C@@](O)(O2)C(=O)C(=O)N2CCCC[C@H]2C(=O)OC([C@H](C)C[C@@H]2CC[C@@H](O)[C@H](OC)C2)CC(=O)[C@H](C)/C=C(\C)[C@@H](O)[C@@H](OC)C(=O)[C@H](C)C[C@H](C)/C=C/C=C/C=C/1C (stereo partly specified)

Output:
[95.3, 101, 100, 93, 112]

Kindly give each listed record's residual activity.
1. Cc1ccc(S(=O)(=O)/C=C/C#N)cc1
2. COc1ccc2c(c[n+](C)c3c4cc5c(cc4ccc23)OCO5)c1OC
3. c1ccc(-c2n[nH]c3c2oc2ccccc23)cc1

Output:
93.5
93.3
98.1

----------
Target of assay: FRK (human)
Experiment: radiometric filter-binding kinase assay, Kinase HotSpot
Assay context: compound 0.5 µM; ATP 10 µM
Endpoint label: residual activity (%)
Answers are plain numbers, in %.

• Nc1ncnc2c1c(-c1ccc(Oc3ccccc3)cc1)cn2C1CCCC1 = 6.25
• O=C(Nc1cccc(Nc2nccc(Nc3cccc(C(F)(F)F)c3)n2)c1)C1CC1 = 92.2
• Oc1cccc(-c2nc(N3CCOCC3)c3oc4ncccc4c3n2)c1 = 91.3

Task: Please provide the recorded residual activity for Cc1nc(Nc2ncc(C(=O)Nc3c(C)cccc3Cl)s2)cc(N2CCN(CCO)CC2)n1 , tested on FRK (human).
Output: -0.878

----------
Target of assay: CSNK1A1 (human) (UniProt P48729)
Sequence (P48729 whole entry, looked up): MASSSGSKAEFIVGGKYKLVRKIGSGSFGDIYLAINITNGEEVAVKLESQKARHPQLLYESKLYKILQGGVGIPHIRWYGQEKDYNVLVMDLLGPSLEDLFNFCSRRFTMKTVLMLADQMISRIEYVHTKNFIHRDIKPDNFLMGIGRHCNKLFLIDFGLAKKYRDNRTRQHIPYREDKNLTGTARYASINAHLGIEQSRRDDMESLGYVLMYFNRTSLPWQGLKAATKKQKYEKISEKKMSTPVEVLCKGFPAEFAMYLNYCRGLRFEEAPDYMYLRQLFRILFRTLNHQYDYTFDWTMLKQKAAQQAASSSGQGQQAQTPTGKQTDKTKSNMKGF
Experiment: radiometric filter-binding kinase assay, Kinase HotSpot
Assay context: compound 0.5 µM; ATP 10 µM
Endpoint label: residual activity (%)
Numbers only, in %.

Example cases with answers are listed next.
* Cc1ccc(NC2=CC(=O)c3sc(C)nc3C2=O)cc1 | 106
* Cc1ccc(Nc2nccc(N(C)c3ccc4c(C)n(C)nc4c3)n2)cc1S(N)(=O)=O | 100
* CCN(CC)C(=O)c1ccc(Nc2nc(OCC3CCCCC3)c3nc[nH]c3n2)cc1 | 104
* O=C1NC(=O)/C(=C/c2ccc3c(c2)OC(F)(F)O3)S1 | 88.4
* Cc1[nH]c(/C=C2\C(=O)Nc3ccc(S(=O)(=O)N(C)c4cccc(Cl)c4)cc32)c(C)c1C(=O)N1CCN(C)CC1 | 79.2

Kindly give each listed record's residual activity.
1. Nc1ccc2ncnc(NCCc3ccc(Oc4ccccc4)cc3)c2c1
2. O=C(Nc1cccc(Nc2nccc(Nc3cccc(C(F)(F)F)c3)n2)c1)C1CC1
3. c1ccc(-c2n[nH]cc2-c2ccnc3ccccc23)nc1

Output:
1: 102; 2: 95.8; 3: 74.6

Kindly give each listed record's residual activity.
1. CCC(=O)Nc1ccc2ncnc(Nc3cccc(Br)c3)c2c1
2. O=C1NC(=O)C(c2cn(CCCn3ccnc3)c3ccccc23)=C1Nc1ccccc1

Output:
1. 97
2. 102
